assay: Clearance in Sprague-Dawley rat at 1 mg/kg, iv measured up to 8 hrs by LC-MS/MS analysis; assay type: ADME, organism-based; details: in vivo

- chemical smiles: "CN(C)C(=O)c1ccc(-c2n[nH]c3ncc(-c4ccc5c(c4)CC[C@@H](N4C6COCC4C6)CC5)cc23)cc1"
  readout units: "mL/min/kg"
  clearance: 2.67

----------
assay: Cmax in human (healthy individuals) at 270 mg, single oral dose measured uo to 120 hrs; assay type: ADME; conditions: in vivo

- chemical smiles: "Cc1cccnc1-c1ccc(-c2n[nH]c3ncc(-c4ccc5c(c4)CC[C@@H](N4C6COCC4C6)CC5)cc23)nc1"
  Cmax, ng/mL: 153

----------
assay: Metabolic stability in rat hepatocytes assessed as intrinsic clearance measured per 10^6 cells; type: ADME, cell-based, Hepatocyte; settings: read-out: CLH

- compound: "c1cc2c(cc1-c1cnc3[nH]nc(-c4ccc5c(c4)OCCO5)c3c1)CCC(N1C3COCC1C3)CC2 (racemic)"
  readout units: "µL/min/1e6 cells"
  prefix operator: "="
  hepatocyte CLint: 46
- compound: "CS(=O)(=O)c1ccc(-c2n[nH]c3ncc(-c4ccc5c(c4)CC[C@@H](N4C6COCC4C6)CC5)cc23)cc1"
  readout units: "µL/min/1e6 cells"
  prefix operator: "="
  hepatocyte CLint: 9.8
- compound: "N#Cc1cccnc1-c1ccc(-c2n[nH]c3ncc(-c4ccc5c(c4)CC[C@@H](N4C6COCC4C6)CC5)cc23)cc1"
  readout units: "µL/min/1e6 cells"
  prefix operator: "<"
  hepatocyte CLint: 2.7
- compound: "Cc1cccnc1-c1ccc(-c2n[nH]c3ncc(-c4ccc5c(c4)CC[C@@H](N[C@H]4CCCOC4)CC5)cc23)cc1"
  readout units: "µL/min/1e6 cells"
  prefix operator: "="
  hepatocyte CLint: 12
- compound: "c1ccc(-c2ccc(-c3n[nH]c4ncc(-c5ccc6c(c5)CC[C@@H](N5C7COCC5C7)CC6)cc34)cc2)nc1"
  readout units: "µL/min/1e6 cells"
  prefix operator: "<"
  hepatocyte CLint: 2.7
- compound: "O=C1OCCN1c1ccc(-c2n[nH]c3ncc(-c4ccc5c(c4)CC[C@@H](N4C6COCC4C6)CC5)cc23)cc1"
  readout units: "µL/min/1e6 cells"
  prefix operator: "="
  hepatocyte CLint: 4.3
- compound: "Cc1cccnc1-c1ccc(-c2n[nH]c3ncc(-c4ccc5c(c4)CC[C@@H](N4C6COCC4C6)CC5)cc23)nc1"
  readout units: "µL/min/1e6 cells"
  prefix operator: "="
  hepatocyte CLint: 20

----------
Biological target: UniProtKB P05177
Sequence (P05177 whole entry): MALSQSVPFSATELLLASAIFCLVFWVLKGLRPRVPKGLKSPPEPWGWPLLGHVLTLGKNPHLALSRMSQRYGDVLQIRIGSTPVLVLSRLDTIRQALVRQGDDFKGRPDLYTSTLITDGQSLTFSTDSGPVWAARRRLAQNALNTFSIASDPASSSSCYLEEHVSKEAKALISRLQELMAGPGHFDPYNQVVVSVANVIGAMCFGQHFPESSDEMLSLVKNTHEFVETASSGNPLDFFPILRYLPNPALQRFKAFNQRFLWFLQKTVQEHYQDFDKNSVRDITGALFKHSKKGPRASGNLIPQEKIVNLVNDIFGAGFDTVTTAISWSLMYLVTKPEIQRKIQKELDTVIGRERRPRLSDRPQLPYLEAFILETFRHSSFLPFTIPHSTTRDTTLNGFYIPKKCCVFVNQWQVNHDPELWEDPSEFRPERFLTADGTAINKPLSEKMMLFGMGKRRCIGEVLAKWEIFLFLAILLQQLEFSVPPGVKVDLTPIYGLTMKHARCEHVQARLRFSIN
pIC50: −log10 of the molar value.
readout label: pIC50

- chemical smiles: "Cc1cccnc1-c1ccc(-c2n[nH]c3ncc(-c4ccc5c(c4)CC[C@@H](N4C6COCC4C6)CC5)cc23)nc1"
  readout label: "pIC50"
  obs value: "< 4.00"
